These entries and their values trace back to patent US7098340B2.

subjectOfTest: androgen receptor (Homo sapiens, UniProt P10275)
Sequence (P10275 1-920 Q868H): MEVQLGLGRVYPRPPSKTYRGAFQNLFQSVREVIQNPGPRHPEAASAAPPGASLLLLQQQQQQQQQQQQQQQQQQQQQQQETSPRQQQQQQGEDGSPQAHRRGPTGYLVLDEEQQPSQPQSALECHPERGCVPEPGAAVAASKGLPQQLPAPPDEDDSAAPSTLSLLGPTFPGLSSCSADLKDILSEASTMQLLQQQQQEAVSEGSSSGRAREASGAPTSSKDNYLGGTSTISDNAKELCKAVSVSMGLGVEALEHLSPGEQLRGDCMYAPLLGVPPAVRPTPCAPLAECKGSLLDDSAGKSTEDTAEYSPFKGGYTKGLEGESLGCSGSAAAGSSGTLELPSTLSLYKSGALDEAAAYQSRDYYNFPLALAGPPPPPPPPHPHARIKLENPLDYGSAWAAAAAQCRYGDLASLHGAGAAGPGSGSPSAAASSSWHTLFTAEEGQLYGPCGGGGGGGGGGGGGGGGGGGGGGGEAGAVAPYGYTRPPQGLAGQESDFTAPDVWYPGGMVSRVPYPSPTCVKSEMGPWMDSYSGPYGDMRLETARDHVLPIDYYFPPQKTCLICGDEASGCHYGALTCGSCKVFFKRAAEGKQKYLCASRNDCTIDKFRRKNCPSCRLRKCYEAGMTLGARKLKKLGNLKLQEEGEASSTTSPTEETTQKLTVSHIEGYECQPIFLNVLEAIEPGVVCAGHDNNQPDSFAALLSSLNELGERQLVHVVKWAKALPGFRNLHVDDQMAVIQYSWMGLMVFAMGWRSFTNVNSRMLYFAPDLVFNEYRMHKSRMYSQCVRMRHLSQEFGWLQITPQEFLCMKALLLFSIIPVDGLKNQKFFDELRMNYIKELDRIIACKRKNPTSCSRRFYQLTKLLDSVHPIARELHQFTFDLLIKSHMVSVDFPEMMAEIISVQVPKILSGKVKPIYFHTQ
testName: AR Antagonist Cell Assay (MMTV-luciferase reporter, DHT-stimulated)
conditionInfo: MDA-MB453-MMTV clone 54-19 cells; antagonism of 100 pM DHT, 17 hr, luciferase readout
pIC50: −log10 of the molar value.
pIC50 values by entry
measuredQuantity: pIC50

substanceSmiles	subjectOfTest	boundType	recordedValue
O=c1cc(C(F)(F)F)c2cc(Cc3ccc(S(=O)(=O)Nc4cccc(-c5cnco5)c4)cc3)ccc2[nH]1	androgen receptor (Homo sapiens, UniProt P10275)	<	5.00
O=c1cc(C(F)(F)F)c2cc(Cc3ccc(S(=O)(=O)NCc4cccnc4)cc3)ccc2o1	androgen receptor (Homo sapiens, UniProt P10275)	=	5.51
Cc1ccc(-c2ccccc2)cc1NS(=O)(=O)c1ccc(Cc2ccc3[nH]c(=O)cc(C(F)(F)F)c3c2)cc1	androgen receptor (Homo sapiens, UniProt P10275)	<	5.00
CCCN(CCO)S(=O)(=O)c1ccc(Cc2ccc3[nH]c(=O)cc(C(F)(F)F)c3c2)cc1	androgen receptor (Homo sapiens, UniProt P10275)	=	5.49

###

subjectOfTest: androgen receptor (Homo sapiens, UniProt P10275)
testName: AR Antagonist Cell Assay (MMTV-luciferase reporter, DHT-stimulated)
conditionInfo: MDA-MB453-MMTV clone 54-19 cells; antagonism of 100 pM DHT, 17 hr, luciferase readout
IC50 values by entry

compound	IC50
O=c1cc(C(F)(F)F)c2cc(Cc3ccc(S(=O)(=O)Nc4ccc5ncccc5c4)cc3)ccc2[nH]1	> 10 µM
O=c1cc(C(F)(F)F)c2cc(Cc3ccc(S(=O)(=O)Nc4ccc(-n5ccc(C(F)(F)F)n5)cc4)cc3)ccc2o1	6.5 µM
O=c1cc(C(F)(F)F)c2cc(Cc3ccc(S(=O)(=O)NCCc4c[nH]c5ccccc45)cc3)ccc2[nH]1	10.3 µM
O=c1cc(C(F)(F)F)c2cc(Cc3ccc(S(=O)(=O)NCc4ccccc4Sc4ccccc4CO)cc3)ccc2[nH]1	> 10 µM
CC(O)c1cccc(NS(=O)(=O)c2ccc(Cc3ccc4oc(=O)cc(C(F)(F)F)c4c3)cc2)c1 (stereo not drawn)	6.91 µM
CN(C1CCCCC1)S(=O)(=O)c1ccc(Cc2ccc3oc(=O)cc(C(F)(F)F)c3c2)cc1	> 10 µM

###

subjectOfTest: UniProt P10275
testName: AR Antagonist Cell Assay (MMTV-luciferase reporter, DHT-stimulated)
conditionInfo: MDA-MB453-MMTV clone 54-19 cells; antagonism of 100 pM DHT, 17 hr, luciferase readout
pIC50: −log10 of the molar value.
pIC50 values by entry

molecule	pIC50
CC(C)CCNS(=O)(=O)c1ccc(Cc2ccc3oc(=O)cc(C(F)(F)F)c3c2)cc1	< 5.00
COc1ccc(N(Cc2ccccc2)S(=O)(=O)c2ccc(Cc3ccc4oc(=O)cc(C(F)(F)F)c4c3)cc2)cc1	5.22
COCCNS(=O)(=O)c1ccc(Cc2ccc3[nH]c(=O)cc(C(F)(F)F)c3c2)cc1	< 5.00
O=c1cc(C(F)(F)F)c2cc(Cc3ccc(S(=O)(=O)NC4CCN(Cc5ccccc5)C4)cc3)ccc2[nH]1 (stereo not drawn)	5.64
O=c1cc(C(F)(F)F)c2cc(Cc3ccc(S(=O)(=O)NC[C@H](O)CO)cc3)ccc2o1	< 5.00
CCCCN(CC)S(=O)(=O)c1ccc(Cc2ccc3[nH]c(=O)cc(C(F)(F)F)c3c2)cc1	< 5.00
O=c1cc(C(F)(F)F)c2cc(Cc3ccc(S(=O)(=O)N(Cc4ccccc4)Cc4ccccc4)cc3)ccc2[nH]1	< 5.00
COc1cccc(NS(=O)(=O)c2ccc(Cc3ccc4[nH]c(=O)cc(C(F)(F)F)c4c3)cc2)c1	< 5.00
O=c1cc(C(F)(F)F)c2cc(Cc3ccc(S(=O)(=O)NCc4ccc5c(c4)CCO5)cc3)ccc2o1	5.60
CCN(Cc1ccncc1)S(=O)(=O)c1ccc(Cc2ccc3[nH]c(=O)cc(C(F)(F)F)c3c2)cc1	< 5.00
O=c1cc(C(F)(F)F)c2cc(Cc3ccc(S(=O)(=O)Nc4cccc(C(F)(F)F)c4)cc3)ccc2[nH]1	< 5.00
Cc1cccc(CNS(=O)(=O)c2ccc(Cc3ccc4oc(=O)cc(C(F)(F)F)c4c3)cc2)c1	5.24
O=c1cc(C(F)(F)F)c2cc(Cc3ccc(S(=O)(=O)NCc4cccc(Cl)c4)cc3)ccc2o1	< 5.00
CCOc1ccc(NS(=O)(=O)c2ccc(Cc3ccc4oc(=O)cc(C(F)(F)F)c4c3)cc2)cc1	5.14
CC(C)(C)c1cc(NS(=O)(=O)c2ccc(Cc3ccc4oc(=O)cc(C(F)(F)F)c4c3)cc2)cc(C(C)(C)C)c1	< 5.00

###

subjectOfTest: androgen receptor (Homo sapiens, UniProt P10275)
Sequence (P10275 1-920 Q868H): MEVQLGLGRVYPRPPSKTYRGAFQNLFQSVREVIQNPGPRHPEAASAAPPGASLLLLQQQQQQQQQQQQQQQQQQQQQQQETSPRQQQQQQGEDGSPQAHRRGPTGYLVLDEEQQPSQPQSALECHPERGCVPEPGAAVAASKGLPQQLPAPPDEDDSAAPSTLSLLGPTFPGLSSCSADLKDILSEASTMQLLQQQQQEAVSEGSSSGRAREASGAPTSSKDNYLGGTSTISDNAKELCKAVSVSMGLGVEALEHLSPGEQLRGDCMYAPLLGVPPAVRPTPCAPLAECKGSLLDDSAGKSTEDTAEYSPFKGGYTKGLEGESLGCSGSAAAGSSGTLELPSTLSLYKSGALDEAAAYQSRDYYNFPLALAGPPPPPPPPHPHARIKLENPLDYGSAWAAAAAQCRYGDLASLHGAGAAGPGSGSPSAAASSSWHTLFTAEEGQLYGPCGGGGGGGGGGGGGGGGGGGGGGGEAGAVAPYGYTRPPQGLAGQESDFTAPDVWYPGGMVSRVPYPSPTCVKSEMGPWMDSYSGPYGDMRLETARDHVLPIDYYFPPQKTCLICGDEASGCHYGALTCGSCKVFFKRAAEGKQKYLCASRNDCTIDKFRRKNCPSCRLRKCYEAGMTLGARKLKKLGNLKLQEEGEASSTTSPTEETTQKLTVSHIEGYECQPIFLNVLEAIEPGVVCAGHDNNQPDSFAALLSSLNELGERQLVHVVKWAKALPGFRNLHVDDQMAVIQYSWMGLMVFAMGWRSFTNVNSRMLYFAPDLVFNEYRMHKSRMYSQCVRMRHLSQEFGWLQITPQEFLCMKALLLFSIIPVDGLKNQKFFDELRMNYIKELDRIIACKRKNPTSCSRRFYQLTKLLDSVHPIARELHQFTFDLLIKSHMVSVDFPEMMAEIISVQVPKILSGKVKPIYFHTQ
testName: AR Antagonist Cell Assay (MMTV-luciferase reporter, DHT-stimulated)
conditionInfo: MDA-MB453-MMTV clone 54-19 cells; antagonism of 100 pM DHT, 17 hr, luciferase readout
Description: The compounds ability to antagonize the effects of androgen on the androgen receptor were determined in the protocol described immediately below. Experimental Procedure for AR Antagonist Cell Assay Cell line: MDA-MB453-MMTV clone 54–19. […] The fold induction over background by 100 pM DHT in the absence of testing compounds is standardized as 100% and experimental result is expressed as percentage of inhibition by testing compounds.
pIC50: −log10 of the molar value.
measuredQuantity: pIC50

compound	subjectOfTest	measuredQuantity	boundType	recordedValue
O=c1cc(C(F)(F)F)c2cc(Cc3ccc(S(=O)(=O)NCCc4cccs4)cc3)ccc2o1	androgen receptor (Homo sapiens, UniProt P10275)	pIC50	=	5.22
O=c1cc(C(F)(F)F)c2cc(Cc3ccc(S(=O)(=O)NC4CCN(Cc5ccccc5)CC4)cc3)ccc2o1	androgen receptor (Homo sapiens, UniProt P10275)	pIC50	=	5.22
O=c1cc(C(F)(F)F)c2cc(Cc3ccc(S(=O)(=O)NCc4cccc(Cl)c4F)cc3)ccc2[nH]1	androgen receptor (Homo sapiens, UniProt P10275)	pIC50	<	5.00
O=c1cc(C(F)(F)F)c2cc(Cc3ccc(S(=O)(=O)Nc4cccc(OCc5ccccc5)c4)cc3)ccc2[nH]1	androgen receptor (Homo sapiens, UniProt P10275)	pIC50	=	5.55
CC(=O)c1cccc(NS(=O)(=O)c2ccc(Cc3ccc4[nH]c(=O)cc(C(F)(F)F)c4c3)cc2)c1	androgen receptor (Homo sapiens, UniProt P10275)	pIC50	=	5.04
O=c1cc(C(F)(F)F)c2cc(Cc3ccc(S(=O)(=O)N(CCO)C4CCCCC4)cc3)ccc2[nH]1	androgen receptor (Homo sapiens, UniProt P10275)	pIC50	<	5.00
O=c1cc(C(F)(F)F)c2cc(Cc3ccc(S(=O)(=O)Nc4cc(-c5ccccc5)n[nH]4)cc3)ccc2[nH]1	androgen receptor (Homo sapiens, UniProt P10275)	pIC50	<	5.00
O=c1cc(C(F)(F)F)c2cc(Cc3ccc(S(=O)(=O)Nc4cccc(OCc5ccccc5)c4)cc3)ccc2o1	androgen receptor (Homo sapiens, UniProt P10275)	pIC50	=	6.11
O=c1cc(C(F)(F)F)c2cc(Cc3ccc(S(=O)(=O)NCc4c(F)cccc4F)cc3)ccc2o1	androgen receptor (Homo sapiens, UniProt P10275)	pIC50	=	5.72
O=c1cc(C(F)(F)F)c2cc(Cc3ccc(S(=O)(=O)Nc4ccccc4)cc3)ccc2o1	androgen receptor (Homo sapiens, UniProt P10275)	pIC50	=	6.14
Cc1ccc(CNS(=O)(=O)c2ccc(Cc3ccc4[nH]c(=O)cc(C(F)(F)F)c4c3)cc2)o1	androgen receptor (Homo sapiens, UniProt P10275)	pIC50	<	5.00
O=c1cc(C(F)(F)F)c2cc(Cc3ccc(S(=O)(=O)NCCc4ccccc4)cc3)ccc2[nH]1	androgen receptor (Homo sapiens, UniProt P10275)	pIC50	<	5.00
CC(CNS(=O)(=O)c1ccc(Cc2ccc3oc(=O)cc(C(F)(F)F)c3c2)cc1)c1ccccc1 (centres unmarked)	androgen receptor (Homo sapiens, UniProt P10275)	pIC50	=	5.69
O=c1cc(C(F)(F)F)c2cc(Cc3ccc(S(=O)(=O)NCc4cc(C(F)(F)F)ccc4F)cc3)ccc2o1	androgen receptor (Homo sapiens, UniProt P10275)	pIC50	<	5.00
CC(C)N(c1ccccc1)c1ccc(NS(=O)(=O)c2ccc(Cc3ccc4[nH]c(=O)cc(C(F)(F)F)c4c3)cc2)cc1	androgen receptor (Homo sapiens, UniProt P10275)	pIC50	=	5.30
CN(c1ccccc1)S(=O)(=O)c1ccc(Cc2ccc3oc(=O)cc(C(F)(F)F)c3c2)cc1	androgen receptor (Homo sapiens, UniProt P10275)	pIC50	=	5.23
O=c1cc(C(F)(F)F)c2cc(Cc3ccc(S(=O)(=O)NCc4cc(C(F)(F)F)ccc4F)cc3)ccc2[nH]1	androgen receptor (Homo sapiens, UniProt P10275)	pIC50	=	5.58
O=c1cc(C(F)(F)F)c2cc(Cc3ccc(S(=O)(=O)Nc4ccccc4N4CCCCC4)cc3)ccc2[nH]1	androgen receptor (Homo sapiens, UniProt P10275)	pIC50	<	5.00
COc1ccccc1NS(=O)(=O)c1ccc(Cc2ccc3oc(=O)cc(C(F)(F)F)c3c2)cc1	androgen receptor (Homo sapiens, UniProt P10275)	pIC50	=	5.39
O=c1cc(C(F)(F)F)c2cc(Cc3ccc(S(=O)(=O)Nc4ccccc4N4CCCCC4)cc3)ccc2o1	androgen receptor (Homo sapiens, UniProt P10275)	pIC50	=	5.32
CC(C)(C)SCCNS(=O)(=O)c1ccc(Cc2ccc3[nH]c(=O)cc(C(F)(F)F)c3c2)cc1	androgen receptor (Homo sapiens, UniProt P10275)	pIC50	<	5.00
CCOC(=O)Cc1ccc(NS(=O)(=O)c2ccc(Cc3ccc4oc(=O)cc(C(F)(F)F)c4c3)cc2)cc1	androgen receptor (Homo sapiens, UniProt P10275)	pIC50	=	5.50
Cc1ccc2cc(NS(=O)(=O)c3ccc(Cc4ccc5oc(=O)cc(C(F)(F)F)c5c4)cc3)ccc2n1	androgen receptor (Homo sapiens, UniProt P10275)	pIC50	=	5.69
O=c1cc(C(F)(F)F)c2cc(Cc3ccc(S(=O)(=O)NCc4c(F)ccc(F)c4Cl)cc3)ccc2o1	androgen receptor (Homo sapiens, UniProt P10275)	pIC50	=	5.35
CCCCN(CCCC)S(=O)(=O)c1ccc(Cc2ccc3oc(=O)cc(C(F)(F)F)c3c2)cc1	androgen receptor (Homo sapiens, UniProt P10275)	pIC50	=	5.21
O=c1cc(C(F)(F)F)c2cc(Cc3ccc(S(=O)(=O)NCCN4CCCC4)cc3)ccc2[nH]1	androgen receptor (Homo sapiens, UniProt P10275)	pIC50	=	5.44
N#CCc1ccc(NS(=O)(=O)c2ccc(Cc3ccc4oc(=O)cc(C(F)(F)F)c4c3)cc2)cc1	androgen receptor (Homo sapiens, UniProt P10275)	pIC50	=	5.72
